Each entry below lists one item and its recorded Herbicidal effect, common purslane value.
- Tested on: common purslane (Portulaca oleracea)
- experiment: Pre-emergence application, herbicidal effect on common purslane (Table 1)
- Assay type: in vivo
- conditions.used: 10 g./a., 20 days after application, score 0-5

# compound, Herbicidal effect, common purslane
records = [
    ("C=CCSP(=O)(OCCC)SCC(=O)N1CCC(C)CC1 (stereo not shown)", 4),
    ("CCOP(=O)(SCC(=O)N1CCCCC1CC)SC(C)C (stereo not shown)", 5),
    ("CCCSP(=O)(OCC)SCC(=O)N1CCCC(C)C1 (stereo not shown)", 4),
    ("CCOP(=O)(SCC(=O)N1CCCCC1C)SCc1ccc(Cl)cc1 (stereo not shown)", 3),
    ("CCCCOP(=O)(SCC(=O)N1CCCCC1CC)SCC(C)C (stereo not shown)", 4),
    ("CCOP(=O)(SCC(=O)N1CCCCC1C)SCc1ccc(C(C)(C)C)cc1 (stereo not shown)", 5),
    ("CCOP(=O)(SCC(=O)N1CCCCC1CC)SCc1ccc(CC)cc1 (stereo not shown)", 3),
    ("CCOP(=O)(SCC(=O)N1CCCCC1C)SC(C)CC (stereo not shown)", 5),
    ("C=C(Cl)CSP(=O)(OCC)SCC(=O)N1CCCCC1CC (stereo not shown)", 3),
    ("CCOP(=O)(SCC(=O)N1CCCCC1C)SCc1ccc(CC)cc1 (stereo not shown)", 3),
    ("CCCCCSP(=O)(OCC)SCC(=O)N1CCCCC1CC (stereo not shown)", 4),
    ("CCCCOP(=O)(SCC)SCC(=O)N1CCCCC1CC (stereo not shown)", 5),
    ("CCCCCCSP(=O)(OCC)SCC(=O)N1CCCCC1C (stereo not shown)", 3),
    ("CCCSP(=O)(OCC)SCC(=O)N1CCC(C)CC1 (stereo not shown)", 5),
    ("C=CCSP(=O)(OCCC)SCC(=O)N1CCCCC1CC (stereo not shown)", 3),
    ("CCCOP(=O)(SCC(=O)N1CCCCC1CC)SC(C)CC (stereo not shown)", 3),
    ("CCCCCSP(=O)(OCCC)SCC(=O)N1CCCCC1C (stereo not shown)", 3),
    ("CCCOP(=O)(SCCC)SCC(=O)N1CCCCC1CC (stereo not shown)", 5),
    ("CCOP(=O)(SCC)SCC(=O)N1CCCCC1C (stereo not shown)", 4),
]
